System under test: T1, 4K-6H-NS2/3 (904-1206)st-4K (Hepatitis C virus genotype 1b)
T1 chain: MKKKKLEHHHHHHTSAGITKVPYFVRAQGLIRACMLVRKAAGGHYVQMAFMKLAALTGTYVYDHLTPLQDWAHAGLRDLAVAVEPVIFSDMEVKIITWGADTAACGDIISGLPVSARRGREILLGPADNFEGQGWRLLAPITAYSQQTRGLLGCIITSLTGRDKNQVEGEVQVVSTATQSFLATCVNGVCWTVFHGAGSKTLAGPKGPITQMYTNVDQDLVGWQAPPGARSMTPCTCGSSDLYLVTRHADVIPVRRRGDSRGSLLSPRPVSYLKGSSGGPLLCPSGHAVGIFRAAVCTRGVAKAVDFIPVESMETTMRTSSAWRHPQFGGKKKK
Assay overview: cell-based or functional assay
Attribute measured: IC50, inhibition of NS2/3 autocleavage (µM)
Enter your answer as a number in µM; do not include the unit.

Item: SFEGQGWRLLAPITAYSQQT [Peptide 1, SFEGQGWRLL-APITAYSQQT] | IC50, inhibition of NS2/3 autocleavage: 270

Record summary for KGWRLLAPITAY [Peptide 4, KGWRLL-APITAY] : reported IC50, inhibition of NS2/3 autocleavage = 630

Record summary for APITAY [Peptide 5, APITAY] : reported IC50, inhibition of NS2/3 autocleavage = 1000

Per the record, SFEGQGWRLL [Peptide 2, SFEGQGWRLL] has IC50, inhibition of NS2/3 autocleavage of 90
